Assay: growth inhibition of WT strain, primary screen, mitochondrial fusion inhibitor project, WT and mutant strains, chemical genetic (AID 1362)
Conditions: mitochondrial fusion phenotypic screen, WT strain, growth inhibition; at 10 µM
The campaign covered roughly 190,000 compounds. About 4,000 (2.1%) were called active. No stated cut-off is given here; in the data, active means inhibition above about 58%; inactive means the rest, inconclusive results apart; tested in S. cerevisiae. Many of the other results were omitted from the sample, so actives are more common in it than they were.
The reply should name one outcome from active, inactive

GET /call?item= COc1ccc(S(=O)(=O)N(C)CC(=O)N2CCCC2)cc1Cl returns the recorded outcome of this test.
inactive

GET /call?item= COc1cccc(CNC(=O)Cc2csc(Nc3nc(=S)[nH]c4ccccc34)n2)c1 returns the recorded outcome of this test.
inactive

GET /call?item= Cc1nc(-c2ccc(Cl)cc2)sc1C(=O)CBr returns the recorded outcome of this test.
inactive

GET /call?item= COc1ccc(OC)c(C(=O)c2coc3ccc(O)c(CN4CCOCC4)c23)c1 returns the recorded outcome of this test.
inactive

GET /call?item= COc1ccc2occ(C(=O)c3ccc(N=C(C)N(C)C)cc3)c2c1 returns the recorded outcome of this test.
inactive

GET /call?item= CC(C)(C)NC(=O)C(=O)NN=C1CCCCCCC1 returns the recorded outcome of this test.
inactive

GET /call?item= O=c1cnnc(Nc2ccccc2F)[nH]1 returns the recorded outcome of this test.
inactive

GET /call?item= Cc1ccc(C2CC(c3cccc(NS(C)(=O)=O)c3)=NN2S(C)(=O)=O)cc1 (stereo not drawn) returns the recorded outcome of this test.
inactive

GET /call?item= Cc1coc(C)c1C(=O)CC1(O)C(=O)N(C)c2ccc(Cl)cc21 (stereo not drawn) returns the recorded outcome of this test.
inactive

GET /call?item= O=C(NCCN1CCOCC1)Nc1cccc(Cl)c1 returns the recorded outcome of this test.
inactive

GET /call?item= CCOC(=O)c1cnc(-n2nc(C)cc2C)nc1NNc1cc(C)nc(-c2ccccc2)n1 returns the recorded outcome of this test.
active

GET /call?item= COc1ccc2c(c1)CCc1c(C(=O)Nc3c(C)n(C)n(-c4ccccc4)c3=O)noc1-2 returns the recorded outcome of this test.
inactive

GET /call?item= CC(C)NC(=S)NN=C1CCCCCCCCCCC1 returns the recorded outcome of this test.
active

GET /call?item= COc1cc(SC#N)ccc1N=Cc1c(C)[nH]n(-c2ccc(C)cc2)c1=O returns the recorded outcome of this test.
active

GET /call?item= Cc1cc2c(cc1C)[n+](C)cn2CC(O)COCC1CC=CCC1 (stereo not drawn) returns the recorded outcome of this test.
inactive

GET /call?item= CSc1ccc(C(=O)C2CCCN(C(=O)c3ccc(C)nc3)C2)cc1 (stereo not drawn) returns the recorded outcome of this test.
inactive

GET /call?item= O=c1[nH]n(-c2cccc(Cl)c2)c2ncccc12 returns the recorded outcome of this test.
inactive

GET /call?item= COc1ccc(OC)c(C(=O)c2coc3ccc(OC)cc23)c1 returns the recorded outcome of this test.
active

GET /call?item= COc1ccc2c(c1)CCc1c(C(=O)N3CCc4ccccc4C3)noc1-2 returns the recorded outcome of this test.
active

GET /call?item= CCCn1nc(C(=O)N2CCCc3ccccc32)c2ccccc2c1=O returns the recorded outcome of this test.
inactive

GET /call?item= Cc1ccc(C2C3=C(Nc4[nH]n(-c5ccccc5)c(=O)c42)c2ccccc2C3=O)cc1 (stereo not drawn) returns the recorded outcome of this test.
inactive

GET /call?item= CCn1c(N)c(Br)c(=O)[nH]c1=O returns the recorded outcome of this test.
inactive

GET /call?item= Cc1[nH]n(-c2cccc(Cl)c2)c(=O)c1-c1ccc(Cl)cc1 returns the recorded outcome of this test.
active
